pIC50: −log10 of the molar value.
From various publications: pIC50 for Protein deacetylase HDAC6 (Homo sapiens, UniProt Q9UBN7).
Rule: pIC50 of 7 or more gives condition met; anything lower gives condition not met.

{"compound": "CC1(C)CC(=O)Nc2ccc(NC(=O)CCCCCCC(=O)NO)cc21", "targetOfAssay": "Protein deacetylase HDAC6 (Homo sapiens, UniProt Q9UBN7)", "classLabel": "condition not met"}
{"compound": "CN1CC2(CCCCC2)CC[C@H]1Cc1cc(F)cc(C(=O)NO)c1", "targetOfAssay": "Protein deacetylase HDAC6 (Homo sapiens, UniProt Q9UBN7)", "classLabel": "condition met"}
{"compound": "NC(=O)c1ccc(COc2ccc(-n3cc4cccc(C(N)=O)c4n3)cc2)cc1", "targetOfAssay": "Protein deacetylase HDAC6 (Homo sapiens, UniProt Q9UBN7)", "classLabel": "condition not met"}
{"compound": "O=C(CCCCC[C@@H]1NC(=O)[C@H]2CCCN2C(=O)[C@@H]2CCCCCCCCCCC[C@@H](NC1=O)C(=O)N2)NO", "targetOfAssay": "Protein deacetylase HDAC6 (Homo sapiens, UniProt Q9UBN7)", "classLabel": "condition not met"}
{"compound": "NC(=O)c1ccc2c(c1)N(Cc1ccc(/C=C/C(=O)NO)cc1)c1ccccc1S2", "targetOfAssay": "Protein deacetylase HDAC6 (Homo sapiens, UniProt Q9UBN7)", "classLabel": "condition met"}
{"compound": "O=C(/C=C/c1ccc(N2CC(=O)N3C(Cc4c([nH]c5ccccc45)C3c3ccc4c(c3)OCO4)C2=O)cc1)NO (centres undefined)", "targetOfAssay": "Protein deacetylase HDAC6 (Homo sapiens, UniProt Q9UBN7)", "classLabel": "condition not met"}
{"compound": "COc1nc2ccccc2cc1-c1cnc([C@@H](N)CCCCCC(=O)c2cnoc2C)[nH]1", "targetOfAssay": "Protein deacetylase HDAC6 (Homo sapiens, UniProt Q9UBN7)", "classLabel": "condition not met"}

###

# targetOfAssay: UniProt Q9UBN7
# Sequence (Q9UBN7 whole entry): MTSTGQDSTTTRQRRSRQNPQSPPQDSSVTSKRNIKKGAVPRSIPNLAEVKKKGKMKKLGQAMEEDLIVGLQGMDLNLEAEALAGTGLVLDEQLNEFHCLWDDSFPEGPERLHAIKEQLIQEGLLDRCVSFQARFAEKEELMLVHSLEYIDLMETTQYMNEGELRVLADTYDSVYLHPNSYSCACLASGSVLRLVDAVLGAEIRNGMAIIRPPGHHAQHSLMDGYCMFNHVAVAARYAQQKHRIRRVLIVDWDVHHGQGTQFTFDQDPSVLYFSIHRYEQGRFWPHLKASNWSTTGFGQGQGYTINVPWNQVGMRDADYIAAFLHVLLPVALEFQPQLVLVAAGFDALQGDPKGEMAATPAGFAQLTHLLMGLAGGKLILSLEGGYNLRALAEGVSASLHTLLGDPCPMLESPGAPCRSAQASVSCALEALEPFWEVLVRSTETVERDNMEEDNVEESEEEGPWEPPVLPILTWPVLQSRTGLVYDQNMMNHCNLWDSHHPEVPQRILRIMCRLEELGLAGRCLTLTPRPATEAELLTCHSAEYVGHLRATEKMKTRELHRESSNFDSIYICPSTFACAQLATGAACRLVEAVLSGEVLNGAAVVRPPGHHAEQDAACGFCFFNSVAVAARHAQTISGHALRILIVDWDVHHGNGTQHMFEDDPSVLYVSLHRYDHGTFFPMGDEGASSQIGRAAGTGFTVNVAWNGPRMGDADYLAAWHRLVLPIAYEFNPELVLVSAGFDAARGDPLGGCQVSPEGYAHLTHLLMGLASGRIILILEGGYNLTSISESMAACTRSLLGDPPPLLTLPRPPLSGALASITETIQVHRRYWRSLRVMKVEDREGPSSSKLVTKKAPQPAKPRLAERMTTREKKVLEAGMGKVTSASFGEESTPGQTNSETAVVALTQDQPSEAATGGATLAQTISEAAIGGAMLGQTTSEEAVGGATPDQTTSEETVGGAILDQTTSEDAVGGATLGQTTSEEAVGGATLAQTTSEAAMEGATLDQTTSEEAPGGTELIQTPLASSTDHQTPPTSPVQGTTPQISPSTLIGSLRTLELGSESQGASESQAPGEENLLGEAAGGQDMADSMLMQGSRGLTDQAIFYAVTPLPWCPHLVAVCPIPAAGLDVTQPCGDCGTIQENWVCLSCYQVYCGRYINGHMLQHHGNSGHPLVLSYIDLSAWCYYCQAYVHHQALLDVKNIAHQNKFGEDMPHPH
pIC50: −log10 of the molar value.
Literature pIC50 values, system: UniProt Q9UBN7.
testReadout: pIC50

{"compound": "O=C(NO)c1ccc(CN2CC(=O)N(Cc3ccc(Cl)cc3)[C@H](Cc3ccccc3)C2=O)cc1", "testReadout": "pIC50", "readoutQualifier": "=", "resultValue": 7.93}
{"compound": "Nc1nc(-c2ccco2)c2cnn(Cc3cccc(OCCCCCCC(=O)NO)c3)c2n1", "testReadout": "pIC50", "readoutQualifier": "=", "resultValue": 8.68}
{"compound": "O=C(NO)c1ccc(CN2c3ccccc3Sc3ccccc32)nc1", "testReadout": "pIC50", "readoutQualifier": "=", "resultValue": 7.96}
{"compound": "CC1(C)CC(=O)Nc2ccc(C(=O)NC[C@H]3CC[C@H](/C=C/C(=O)NO)CC3)cc21", "testReadout": "pIC50", "readoutQualifier": "=", "resultValue": 7.24}
{"compound": "CCCN1C(=O)N(Cc2ccc(C(=O)NO)cc2)C(=O)C1CC(C)C (racemic)", "testReadout": "pIC50", "readoutQualifier": "=", "resultValue": 6.76}
{"compound": "CC[C@H]1OC(=O)[C@H](C)C(=O)[C@H](C)[C@@H](O[C@@H]2O[C@H](C)C[C@H](N(C)Cc3ccc(-c4cn(CCCCCCCCCC(=O)NO)nn4)cc3)[C@H]2O)[C@](C)(OC)C[C@@H](C)C2=NCCN3C(=O)O[C@@]1(C)[C@H]3[C@H]2C", "testReadout": "pIC50", "readoutQualifier": "=", "resultValue": 5.49}
{"compound": "O=C(NO)c1ccc(CN2N=C(Cl)C=C3Sc4ccccc4N=C32)cc1", "testReadout": "pIC50", "readoutQualifier": "=", "resultValue": 6.94}
{"compound": "C[C@H](CCCCC(=O)NO)[C@H]1CC[C@H]2/C(=C/C=C3C[C@@H](O)C[C@H](O)C3)CCC[C@]12C", "testReadout": "pIC50", "readoutQualifier": "=", "resultValue": 5.52}
{"compound": "COc1ccc(COCc2ccc(C(=O)C(F)(F)F)s2)cc1", "testReadout": "pIC50", "readoutQualifier": "=", "resultValue": 6.39}
{"compound": "O=C(CS)NCCCCCn1ccc2cc(Cl)c(Cl)cc21", "testReadout": "pIC50", "readoutQualifier": "=", "resultValue": 7.94}
{"compound": "O=C(/C=C/c1ccc(CN(CCCOc2ccccc2)Cc2ccccc2)o1)NO", "testReadout": "pIC50", "readoutQualifier": "=", "resultValue": 6.10}
{"compound": "CC(=O)c1ccc(-c2ccc(C(=O)C(F)(F)F)s2)cc1", "testReadout": "pIC50", "readoutQualifier": "=", "resultValue": 7.54}
{"compound": "O=C(NO)c1coc(-c2ccccc2Br)n1", "testReadout": "pIC50", "readoutQualifier": "=", "resultValue": 5.66}
{"compound": "Nc1ccccc1NC(=O)c1ccc(CNc2cccc3c2C(=O)N(C2CCC(=O)NC2=O)C3=O)cc1 (stereo not drawn)", "testReadout": "pIC50", "readoutQualifier": "<", "resultValue": 5.70}
{"compound": "Cc1cc(-c2nc3sc4c(c3c(=O)[nH]2)CCN(C)C4)cc(C)c1OCCCCCC(=O)NO", "testReadout": "pIC50", "readoutQualifier": "=", "resultValue": 7.14}
{"compound": "N#CCCn1cc(-c2nc(Nc3ccc(NC(=O)CCCCCCC(=O)NO)cc3)nc3[nH]ccc23)cn1", "testReadout": "pIC50", "readoutQualifier": "=", "resultValue": 9.07}
{"compound": "Cc1ccc(CN2C(=O)N(C3CCCCC3)C(=O)C2CCC(=O)NCc2ccc(C(=O)NO)cc2)cc1 (stereo not drawn)", "testReadout": "pIC50", "readoutQualifier": "=", "resultValue": 7.77}
{"compound": "O=C(/C=C/c1ccc(CN(CCOc2ccccc2)Cc2ccccc2)o1)NO", "testReadout": "pIC50", "readoutQualifier": "=", "resultValue": 5.71}

###

System: Protein deacetylase HDAC6 (Homo sapiens) | Read-out: IC50 | Origin: multiple publications

{"molecule": "O=C(NO)c1ccc(NC2CC(=O)N(c3ccccc3)C2)cc1 (stereo not given)", "unitLabel": "nM", "IC50": 2260}
{"molecule": "O=C(/C=C/c1ccc(CN(CCO)CCc2cc3ccccc3[nH]2)cc1)NO", "unitLabel": "nM", "IC50": 15}
{"molecule": "O=C(CN(Cc1ccc(C(=O)NO)cc1)C(=O)Cc1ccccc1)NC1CCCCC1", "unitLabel": "nM", "IC50": 50}
{"molecule": "Cc1cc(-c2nnc(Sc3c(F)c(F)c(C(=O)NO)c(F)c3F)n2C)nn1C", "unitLabel": "nM", "IC50": 2530}
{"molecule": "CC(=O)N1c2ccc(NC(=O)CCCCCCC(=O)NO)cc2[C@H](Nc2ccccc2)C[C@@H]1C", "unitLabel": "nM", "IC50": 980}
{"molecule": "Nc1nc2ncc(CNc3ccc(C(=O)NCCCCC(=O)NO)cc3)nc2c(=O)[nH]1", "unitLabel": "nM", "IC50": 212}
{"molecule": "O=C(CCCCCCS)NCc1cccc(OCc2ccccc2)c1", "unitLabel": "nM", "IC50": 1770}
{"molecule": "O=C(/C=C/c1ccc(CCNC(=O)c2ccc3ncccc3c2)cc1)NO", "unitLabel": "nM", "IC50": 5.28}
{"molecule": "O=C(CCCCCCC(=O)Nc1ccc2[nH]c(=O)ccc2c1)NO", "unitLabel": "nM", "IC50": 66}
{"molecule": "O=C(NO)c1cccc(-c2cn(Cc3ccccc3)nn2)c1", "unitLabel": "nM", "IC50": 7900}
